- test_name: BET inhibitor-based combinations targeting novel dependencies in MECOM-rearranged (r) AML: AML-191 cell line (AID 2202236; further: nearly all actives have a fitted effect of over 35% in size)
- experimental_conditions: AML-191 viability, CellTiter-Glo luminescence, 48 h; series mostly up to 46 µM
Inconclusive results are not listed. Activity calls are given as the source filed them. The call rests on the fitted dose curve; in most records, active means well fitted inhibition curve with a large enough effect; inconclusive means small, poorly fitted or top-dose-only effect; inactive means flat fitted curve, though single readings scatter.
In this exercise, the only acceptable responses are T for active, F for inactive

**Query** Outcome? O=C(O)[C@H](CC(=O)N1C[C@H]2CCCC[C@H]2C1)Cc1ccccc1
**Result** F

**Query** Same question, COc1ccc2c(Oc3ccc(NC(=O)c4c(C)n(CC(C)(C)O)n(-c5ccccc5)c4=O)cc3F)ccnc2c1 this time
**Result** T

**Query** Same question, Cc1cc(OCc2nnc(SC3CCCC3)n2-c2cccnc2)ccc1-c1ccc(S(C)(=O)=O)cc1 this time
**Result** T

**Query** Same question, CCc1nc(C(N)=O)c(Nc2ccc(N3CCC(N4CCN(C)CC4)CC3)c(OC)c2)nc1NC1CCOCC1 this time
**Result** T

**Query** Same question, Nc1nnc(-c2cccc(Cl)c2Cl)c(N)n1 this time
**Result** F

**Query** Same question, Nc1ncnc2c1c(-c1cnc3[nH]ccc3c1)nn2C1CCCC1 this time
**Result** T

---

- target_system: Cellular tumor antigen p53 (Homo sapiens) (UniProt P04637)
- Sequence (P04637 whole entry, looked up): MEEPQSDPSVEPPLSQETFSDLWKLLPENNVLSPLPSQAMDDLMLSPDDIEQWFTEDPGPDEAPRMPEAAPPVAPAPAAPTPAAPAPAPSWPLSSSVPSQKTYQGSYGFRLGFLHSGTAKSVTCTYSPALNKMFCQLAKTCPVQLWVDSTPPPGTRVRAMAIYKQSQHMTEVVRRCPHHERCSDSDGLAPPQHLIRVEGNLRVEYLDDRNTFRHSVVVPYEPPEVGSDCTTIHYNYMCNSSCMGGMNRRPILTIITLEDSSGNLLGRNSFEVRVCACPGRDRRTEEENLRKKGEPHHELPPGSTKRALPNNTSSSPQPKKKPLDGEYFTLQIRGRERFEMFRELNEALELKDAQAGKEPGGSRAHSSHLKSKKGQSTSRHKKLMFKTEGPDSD
- test_name: Primary qHTS for small molecule compounds that upregulate eGFP-tagged delta133p53alpha (in N-terminal) cells. (AID 2060322);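 further: cells pre-induced with doxycycline then dosed without doxycycline; 0% = DMSO vehicle and 100% = reference activator; nearly all actives have a fitted effect of over 75% in size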
- experimental_conditions: NCI-H358 eGFP-delta133p53alpha fluorescence, 24 h; stronger effect = higher value
- Description: Assay Development and Screening Technology National Center for Advancing Translational Sciences (NCATS), National Institute of Health (NIH), Rockville, Maryland Cellular senescence (CS) is one of the hallmarks of aging and age-related diseases. […] Here we report the development and validation of a cell-based quantitative high throughput screening (qHTS) assay in 1,536-well format. […]
Inconclusive results are not listed.
reported_endpoint: activation (%)
// return numeric value only (unit: %, not printed)

**Query** Name the recorded activation for CC1(C)C[C@H]2C=C(C=O)[C@]3(C(=O)O)C[C@]3(C)[C@H]2C1 .
**Result** 18.8

**Query** Same question, CCc1cc(-c2n[nH]c(C)c2-c2ccc3c(c2)OCCO3)c(O)cc1O this time
**Result** 2.7

**Query** Same question, CC(C)=CCC/C(C)=C/CC/C(C)=C/COC1OC(COC2OCC(OC3OCC(O)C(O)C3O)C(O)C2O)C(O)C(OC2OC(C)C(OC3OC(C)C(OC4OCC(OC5OC(C)C(O)C(O)C5O)C(O)C4O)C(O)C3O)C(O)C2O)C1O (configuration not stated) this time
**Result** 4.58

**Query** Same question, CC(=CC(=O)Nc1ccccc1C(=O)O)c1ccc2ccccc2c1 this time
**Result** -15.6

**Query** Same question, CC(=O)OCC[N+](C)(C)C this time
**Result** 15.3

**Query** Same question, CCCCc1nc(Cl)c(CO)n1Cc1ccc(-c2ccccc2-c2nn[nH]n2)cc1 this time
**Result** -19.2

**Query** Same question, CNC(=O)Nc1ccc(OC)c(NC(=O)NC(=O)c2cc(F)c(F)cc2Cl)c1 this time
**Result** -5.67

**Query** Same question, C=C1C[C@]23C[C@H]1CC[C@H]2[C@]1(C)CCC[C@@](C)(C(=O)O)[C@H]1[C@@H]3C(=O)O this time
**Result** -8.04

**Query** Same question, O=C(C1CCCCC1)N(CCN1CCN(c2ccccc2O)CC1)c1ccccn1 this time
**Result** -3.34

**Query** Same question, O=C1CN2Cc3c(ccc(Cl)c3Cl)N=C2N1 this time
**Result** -11.4

**Query** Same question, O=[N+]([O-])c1ccc(-[n+]2nc(-c3ccccc3)nn2-c2ccc(I)cc2)cc1 this time
**Result** -2.39

**Query** Same question, C#C[C@]1(O)CC[C@@H]2[C@@H]3CCC4=CC(=O)CC[C@@H]4[C@H]3CC[C@@]21CC this time
**Result** 25.3

**Query** Same question, COc1c2c(c(C)c3c1C(=O)OC3)OC1(C)CC(O)C34OC(OC)(CC(OC(C)=O)C3(C)C1C2)OC4(C)C (configuration not stated) this time
**Result** -5.36

**Query** Same question, CNCCC=C1c2ccccc2CCc2ccccc21 this time
**Result** 33

**Query** Same question, COc1cccc(CN(C(=O)CC(C)(C)C)[C@H]2C[C@H](C(=O)N3CCNCC3)N(Cc3ccc4c(c3)OCO4)C2)c1 this time
**Result** 1

**Query** Same question, Clc1ccccc1-c1nc(-c2ccncc2)no1 this time
**Result** 11.7

**Query** Same question, C[C@@H]1CC[C@]2(C(=O)O)CC[C@]3(C)C(=CCC4[C@@]5(C)C[C@@H](O)[C@@H](O)C(C)(C)C5CC[C@]43C)C2[C@]1(C)O (some centres not stated) this time
**Result** -5.36

**Query** Same question, CC(C(=O)O)c1ccc(-c2ccccc2)c(F)c1 (configuration not stated) this time
**Result** 3.78

**Query** Same question, COc1cc(C(O)C(=O)O)ccc1O (configuration not stated) this time
**Result** -11.9

**Query** Same question, Cc1ccc(O)c(-n2nc3ccccc3n2)c1 this time
**Result** 7.53

**Query** Same question, CC1(C)[C@@H]2CC[C@@]1(C)C(=O)C2 this time
**Result** -0.837

**Query** Same question, CC1CCC(=O)CC(O)C(O)CC(=O)O1 (configuration not stated) this time
**Result** 10.7

**Query** Same question, COc1ccc2ccc(=O)oc2c1CC=C(C)C this time
**Result** -15

**Query** Same question, COc1cc(CNC(=O)CCCC/C=C/C(C)C)ccc1O this time
**Result** -7.14

**Query** Same question, CCOC(=O)[C@H]1O[C@@H]1C(=O)N[C@@H](CC(C)C)C(=O)NCCC(C)C this time
**Result** 4.33

**Query** Same question, CC(C)Oc1ccc(-c2cnc3c(-c4ccnc5ccccc45)cnn3c2)cc1 this time
**Result** -6.21

**Query** Same question, CC(=O)C1=CCC2C3CC=C4CC(O)CC(O)C4(C)C3C(O)CC12C (configuration not stated) this time
**Result** 6.11

**Query** Same question, COc1ccc(CNC(=O)c2cc(-c3cncc(C)c3)ncc2-c2nccs2)nc1OC this time
**Result** 0.477

**Query** Same question, C/C=C1/[C@H](O[C@@H]2O[C@H](CO)[C@@H](O)[C@H](O)[C@H]2O)OC=C2C(=O)O[C@@H]3C[C@@H](C(C)CO)[C@H](COC(=O)C[C@H]21)[C@H]3C (some centres not stated) this time
**Result** -3.57

**Query** Same question, CCOc1nc(NC(=O)Cc2cc(OC)ccc2OC)cc(N)c1C#N this time
**Result** 15

**Query** Same question, CC1(C)O[C@@H]2C[C@H]3[C@@H]4CCC5=CC(=O)CC[C@]5(C)[C@@]4(F)[C@@H](O)C[C@]3(C)[C@]2(C(=O)CCl)O1 this time
**Result** -1.67

**Query** Same question, C/C=C(\C)C(=O)O[C@@H]1CC2[C@@H](CC=C3C[C@@H](O[C@H]4C[C@H](OC)[C@H](O[C@H]5C[C@H](OC)[C@H](O[C@@H]6O[C@H](C)[C@@H](O[C@H]7C[C@H](OC)[C@H](O[C@@H]8O[C@H](CO)[C@@H](O)[C@H](O)[C@H]8O)[C@@H](C)O7)[C@H](OC)[C@H]6O)[C@@H](C)O5)[C@@H](C)O4)CC[C@@]32C)[C@@]2(O)CC[C@H](C(C)=O)[C@@]12C (some centres not stated) this time
**Result** 9.92
